Molecular target: recombinant bovine CAII enzyme (bCAII) (Bos taurus, UniProt P00921)
Construct: purchased Sigma-Aldrich; host or cells: E. coli
Sequence (P00921 whole entry): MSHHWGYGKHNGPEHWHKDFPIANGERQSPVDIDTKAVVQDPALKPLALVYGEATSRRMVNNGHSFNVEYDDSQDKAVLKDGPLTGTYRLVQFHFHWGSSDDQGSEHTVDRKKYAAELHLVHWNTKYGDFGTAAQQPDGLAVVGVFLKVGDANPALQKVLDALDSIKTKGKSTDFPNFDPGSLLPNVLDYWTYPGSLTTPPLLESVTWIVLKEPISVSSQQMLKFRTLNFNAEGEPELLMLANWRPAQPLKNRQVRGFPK
Test: Dansylamide (DNSA) displacement fluorescence assay on carbonic anhydrase catalytic site
Type: binding
Conditions: previously experimentally determined; read-out: dissociation constant at equilibrium of DNSA (KDDNSA)
measurement type: Kd (nM)
Give the quantity in nM, number only.

For CN(C)c1cccc2c(S(N)(=O)=O)cccc12 [DNSA, reference compound] the molecule record lists Kd as 170

* * *

Test: Ex vivo biodistribution, organ-to-muscle ratio
Format: in vivo, mice
Settings: 1 nmol/mouse, 24 hours after administration
measurement type: Organ-to-muscle ratio, intestine
API note: the answer field is a bare number with no unit suffix.

compound: CC1(C)C(/C=C/C=C/C=C/C=C2/N(CCCCS(=O)(=O)O)c3ccc(S(=O)(=O)O)cc3C2(C)C)=[N+](CCCCS(=O)(=O)[O-])c2ccc(C(=O)NCCCCCCCC(=O)Nc3nnc(S(N)(=O)=O)s3)cc21 [Compound 2]
measurement type: Organ-to-muscle ratio, intestine
reported result: 1.2

compound: CC1(C)C(/C=C/C2=C(Oc3ccc(S(=O)(=O)O)cc3)C(=C/C=C3/N(CCCCS(=O)(=O)O)c4ccc(S(=O)(=O)O)cc4C3(C)C)/CCC2)=[N+](CCCCS(=O)(=O)[O-])c2ccc(C(=O)NCCCCCCCC(=O)Nc3nnc(S(N)(=O)=O)s3)cc21 [Compound 3]
measurement type: Organ-to-muscle ratio, intestine
reported result: 1.5

compound: CC1(C)C(/C=C/C2=C(Oc3ccc(CCC(=O)NCCCCCCCC(=O)Nc4nnc(S(N)(=O)=O)s4)cc3)C(=C/C=C3/N(CCCCS(=O)(=O)O)c4ccc(S(=O)(=O)O)cc4C3(C)C)/CCC2)=[N+](CCCCS(=O)(=O)[O-])c2ccc(S(=O)(=O)O)cc21 [HF-1, reference compound]
measurement type: Organ-to-muscle ratio, intestine
reported result: 2.2

Kindly review the next compound as well.
GET /value?item= CC1(C)C(/C=C/C=C/C=C/C=C2/N(CCCCS(=O)(=O)O)c3ccc(C(=O)NC[C@H](O)[C@@H](O)[C@H](O)[C@H](O)CO)cc3C2(C)C)=[N+](CCCCS(=O)(=O)[O-])c2ccc(C(=O)NCCCCCCCC(=O)Nc3nnc(S(N)(=O)=O)s3)cc21 [Compound 1] &field=Organ-to-muscle ratio, intestine returns 1.5
